Cited source: patent US11964973B2

# measuredTarget: UniProt P23743
# Sequence (P23743 whole entry, looked up): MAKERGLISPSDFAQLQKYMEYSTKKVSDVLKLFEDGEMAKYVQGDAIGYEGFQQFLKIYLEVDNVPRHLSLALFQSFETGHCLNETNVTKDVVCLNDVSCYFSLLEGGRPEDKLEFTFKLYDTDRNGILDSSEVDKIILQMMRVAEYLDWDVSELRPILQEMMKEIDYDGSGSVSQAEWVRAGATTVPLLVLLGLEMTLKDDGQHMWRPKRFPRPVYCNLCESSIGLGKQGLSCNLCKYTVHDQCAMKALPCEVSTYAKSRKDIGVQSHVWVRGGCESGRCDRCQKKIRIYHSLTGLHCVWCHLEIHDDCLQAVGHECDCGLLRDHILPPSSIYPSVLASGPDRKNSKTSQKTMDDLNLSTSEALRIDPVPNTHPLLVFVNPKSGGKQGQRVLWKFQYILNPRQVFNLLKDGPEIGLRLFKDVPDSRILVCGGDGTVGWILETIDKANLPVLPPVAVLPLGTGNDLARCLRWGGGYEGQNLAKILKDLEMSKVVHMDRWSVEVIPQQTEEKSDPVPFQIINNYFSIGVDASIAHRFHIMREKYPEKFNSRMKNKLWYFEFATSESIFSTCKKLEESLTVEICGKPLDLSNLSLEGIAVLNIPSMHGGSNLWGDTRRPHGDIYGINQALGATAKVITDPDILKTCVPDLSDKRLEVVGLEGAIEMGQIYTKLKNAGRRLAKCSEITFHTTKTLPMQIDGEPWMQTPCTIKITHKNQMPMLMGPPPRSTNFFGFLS
# protocol: biochemical
# Format: biochemical
# experimentalConditions: liposome (LIPGLO) assay; read-out: DGKα LIPGLO IC50
IC50 strictly under 300 nM means fulfilled; at 300 nM or over means not fulfilled.

Solved cases below.
| molecule | category |
| --- | --- |
| CC[C@@H]1CN(c2cc(=O)n(C)c3ccc(C#N)nc23)CC[C@H]1Oc1cccc(C(C)C)c1 (single isomer, unassigned) [Example 139] | fulfilled |
| Cn1c(=O)c(C#N)c(N2CCC(Oc3ccc(OC(F)(F)F)cc3)CC2)c2nc(Cl)ccc21 | not fulfilled |
| Cn1c(=O)c(C#N)c(N2CCC(Oc3ccccc3Cl)CC2)c2nc(Cl)ccc21 | not fulfilled |
| Cn1c(=O)cc(N2CCC(Oc3ccc(Cc4ccccc4)cc3)CC2)c2nc(C#N)ccc21 | not fulfilled |
| C[C@@H]1CN(c2cc(=O)n(C)c3ccc(C#N)nc23)CC[C@H]1Oc1cccc(C2CC2)c1 (single isomer, unassigned) [Example 92] | fulfilled |
| CC(C)c1ccc(O[C@H]2CCN(c3cc(=O)n(C)c4ccc(C#N)nc34)C[C@H]2C)cc1 [Example 176] | fulfilled |

Given "Cn1c(=O)cc(N2CCC(Oc3ccc(C4CCCC4)cc3)CC2)c2nc(C#N)ccc21" , is recorded IC50 strictly lower than 300 nM?
not fulfilled

Given C[C@@H]1CN(c2cc(=O)n(C)c3ccc(C#N)nc23)CC[C@@H]1Oc1cccc(C2CC2)c1 [Example 179] , is recorded IC50 strictly lower than 300 nM?
fulfilled
